# System: MCC13 cells (VN-MCC)
# protocol-details: qHTS cell viability (CellTiter-Glo, 72 h; primary and follow-up small molecule screen)
# Type: cell-based, human
# conditions: MCC13, 72h, Log (M) -9.15343
List of Percent viability values.
Field: numeric (%). Do not append units.

These solved cases illustrate the format of a correct answer.
- CCn1cc(-c2ccnc3[nH]c(-c4cccc(CN(C)C)c4)cc23)c(-c2ccc(NC(=O)N(C)C)cc2)n1 [GSK-1070916A, reference compound]: 112.0
- O=C(Nc1cccc(Cl)c1)Nc1ncc(CCNc2ncnc3ccsc23)s1 [SNS-314, reference compound]: 125.4

Need Percent viability of CCS(=O)(=O)c1cccc(-c2cc(C(=O)NC3CCN(C)CC3)c(C)c3[nH]c4ncc(C)cc4c23)c1 [TAK-901, reference compound] , thanks. 104.5

Need Percent viability of Cc1cc(Nc2cc(N3CCN(C)CC3)nc(Sc3ccc(NC(=O)C4CC4)cc3)n2)[nH]n1 [Tozasertib, reference compound] , thanks. 118.3

* * *

List of Percent viability values.
# Tested on: MCC13 cells (VN-MCC)
# protocol-details: qHTS cell viability (CellTiter-Glo, 72 h; primary and follow-up small molecule screen)
# Assay type: cell-based, human
# conditions: MCC13, 72h, Log (M) -6.2907
Field: numeric (%). Do not append units.

* O=C(Nc1cccc(Cl)c1)Nc1ncc(CCNc2ncnc3ccsc23)s1 [SNS-314, reference compound] | 82.7
* CCS(=O)(=O)c1cccc(-c2cc(C(=O)NC3CCN(C)CC3)c(C)c3[nH]c4ncc(C)cc4c23)c1 [TAK-901, reference compound] | 86.5
* CCn1cc(-c2ccnc3[nH]c(-c4cccc(CN(C)C)c4)cc23)c(-c2ccc(NC(=O)N(C)C)cc2)n1 [GSK-1070916A, reference compound] | 74.5

Next item in the queue.
What is its Percent viability for MCC13 cells (VN-MCC)? Entry: Cc1cc(Nc2cc(N3CCN(C)CC3)nc(Sc3ccc(NC(=O)C4CC4)cc3)n2)[nH]n1 [Tozasertib, reference compound] 72.9

* * *

List of MCC26_AUC values.
# Test system: MCC26 cells (VN-MCC)
# protocol-details: qHTS cell viability (CellTiter-Glo, 72 h; primary and follow-up small molecule screen)
# Type: cell-based, human
# conditions: NPC library; qHTS dose-response AUC, MCC26
Where a name gives a salt, the structure may show the parent alone.
Reply briefly: the number, and no unit.

- OCCN1CCN(CCCN2c3ccccc3Sc3ccc(C(F)(F)F)cc32)CC1: 425.402

Next item in the queue.
Need MCC26_AUC of CCOC(=O)[C@@](C)(N)Cc1ccc(O)c(O)c1 [Methyldopate hydrochloride] , thanks. 437.99

* * *

# protocol-details: qHTS cell viability (CellTiter-Glo, 72 h; primary screen), control cell line
# Format: cell-based, mouse
# conditions: mouse, NIH-3T3 cells (control cell line); 3T3, Log (M) -5.2907; read-out: Percent viability
measurement-type: viability at 72 h, 5.12 µM (%)
Field: numeric (%). Do not append units.

Need viability at 72 h, 5.12 µM of COCCn1c2c([n+](Cc3cnccn3)c1C)C(=O)c1ccccc1C2=O [sepantronium bromide, reference compound] , thanks. 69.8

* * *

List of Area under the dose-response curve (AUC) MCC13 Replicate 2 values.
# Test system: MCC13 cells (VN-MCC)
# protocol-details: qHTS cell viability (CellTiter-Glo, 72 h; primary and follow-up small molecule screen)
# Format: cell-based, human
Reply briefly: the number, and no unit.

Need Area under the dose-response curve (AUC) MCC13 Replicate 2 of `C[n+]1cc2c3c(ccc2c2ccc4cc5c(cc4c21)OCO5)OCO3` , thanks. 359.5

* * *

# System: WAGA cells (VP-MCC)
# protocol-details: qHTS cell viability (CellTiter-Glo, 72 h; primary and follow-up small molecule screen)
# Type: cell-based, human
# conditions: WAGA, 72h, Log (M) -5.33646
measurement-type: Percent viability (%)
Field: numeric (%). Do not append units.

These solved cases illustrate the format of a correct answer.
- O=C(Nc1cccc(Cl)c1)Nc1ncc(CCNc2ncnc3ccsc23)s1 [SNS-314, reference compound]: 42.9
- CCn1cc(-c2ccnc3[nH]c(-c4cccc(CN(C)C)c4)cc23)c(-c2ccc(NC(=O)N(C)C)cc2)n1 [GSK-1070916A, reference compound]: 2.1
- CCS(=O)(=O)c1cccc(-c2cc(C(=O)NC3CCN(C)CC3)c(C)c3[nH]c4ncc(C)cc4c23)c1 [TAK-901, reference compound]: 14.8

Need Percent viability of Cc1cc(Nc2cc(N3CCN(C)CC3)nc(Sc3ccc(NC(=O)C4CC4)cc3)n2)[nH]n1 [Tozasertib, reference compound] , thanks. 23.8

* * *

List of Percent viability values.
# Tested on: MCC26 cells (VN-MCC)
# protocol-details: qHTS cell viability (CellTiter-Glo, 72 h; primary and follow-up small molecule screen)
# Type: cell-based, human
# conditions: MCC26, 72h, Log (M) -8.19919
Field: numeric (%). Do not append units.

These solved cases illustrate the format of a correct answer.
* CCS(=O)(=O)c1cccc(-c2cc(C(=O)NC3CCN(C)CC3)c(C)c3[nH]c4ncc(C)cc4c23)c1 [TAK-901, reference compound] | 87.4
* Cc1cc(Nc2cc(N3CCN(C)CC3)nc(Sc3ccc(NC(=O)C4CC4)cc3)n2)[nH]n1 [Tozasertib, reference compound] | 90.8
* O=C(Nc1cccc(Cl)c1)Nc1ncc(CCNc2ncnc3ccsc23)s1 [SNS-314, reference compound] | 94.0

What is its Percent viability for MCC26 cells (VN-MCC)? Entry: CCn1cc(-c2ccnc3[nH]c(-c4cccc(CN(C)C)c4)cc23)c(-c2ccc(NC(=O)N(C)C)cc2)n1 [GSK-1070916A, reference compound] 93.6

* * *

List of NIH3T3_AUC values.
# System: NIH-3T3 cells
# protocol-details: qHTS cell viability (CellTiter-Glo, 72 h; primary screen), control cell line
# Type: cell-based, mouse
# conditions: area under the dose-response curve, NIH3T3 control cells; AUC<450 = reduced viability
Reply briefly: the number, and no unit.

* CC(=O)SCC(Cc1ccccc1)C(=O)NCC(=O)OCc1ccccc1 (stereo not drawn) [Racecadotril] | 480.677

Need NIH3T3_AUC of Oc1ccc(O)cc1 [Hydroquinone] , thanks. 488.45

Need NIH3T3_AUC of CSc1ccc2c(c1)N(CCC1CCCCN1C)c1ccccc1S2 (stereo not drawn) [Thioridazine] , thanks. 457.938

Need NIH3T3_AUC of C[N+]1(CC2COC(c3ccccc3)(C3CCCCC3)O2)CCCCC1 (stereo not drawn) [Oxapium iodide] , thanks. 474.75

Need NIH3T3_AUC of CN[C@@H]1[C@H](O)[C@H](NC)[C@H]2O[C@@]3(O)C(=O)C[C@@H](C)O[C@H]3O[C@@H]2[C@H]1O.Cl.Cl [Spectinomycin dihydrochloride] , thanks. 486.283

Need NIH3T3_AUC of CC1=C(C)C(=O)C(CCCCC#CCCCC#CCO)=C(C)C1=O [Docebenone] , thanks. 455.144

* * *

# protocol-details: qHTS cell viability (CellTiter-Glo, 72 h; primary screen), control cell line
# Type: cell-based
# conditions: human, CRL-7250 cells; CRL-7250, Log (M) -8.63055; read-out: Percent viability
measurement-type: viability at 72 h, 2.34 nM

Need viability at 72 h, 2.34 nM of COCCn1c2c([n+](Cc3cnccn3)c1C)C(=O)c1ccccc1C2=O [sepantronium bromide, reference compound] , thanks. 100%

* * *

# Tested on: MCC13 cells (VN-MCC)
# protocol-details: qHTS cell viability (CellTiter-Glo, 72 h; primary and follow-up small molecule screen)
# Type: cell-based, human
# conditions: MCC13, 72h, Log (M) -8.67631
measurement-type: Percent viability

These solved cases illustrate the format of a correct answer.
- O=C(Nc1cccc(Cl)c1)Nc1ncc(CCNc2ncnc3ccsc23)s1 [SNS-314, reference compound]: 106.6%
- CCS(=O)(=O)c1cccc(-c2cc(C(=O)NC3CCN(C)CC3)c(C)c3[nH]c4ncc(C)cc4c23)c1 [TAK-901, reference compound]: 116.9%

Need Percent viability of Cc1cc(Nc2cc(N3CCN(C)CC3)nc(Sc3ccc(NC(=O)C4CC4)cc3)n2)[nH]n1 [Tozasertib, reference compound] , thanks. 96.2%

Need Percent viability of CCn1cc(-c2ccnc3[nH]c(-c4cccc(CN(C)C)c4)cc23)c(-c2ccc(NC(=O)N(C)C)cc2)n1 [GSK-1070916A, reference compound] , thanks. 100.5%

* * *

# protocol-details: qHTS cell viability (CellTiter-Glo, 72 h; primary screen), control cell line
# Assay type: cell-based, mouse
# conditions: mouse, NIH-3T3 cells; 3T3, Log (M) -8.63055; read-out: Percent viability
measurement-type: viability at 72 h, 2.34 nM (%)
Field: numeric (%). Do not append units.

Need viability at 72 h, 2.34 nM of COCCn1c2c([n+](Cc3cnccn3)c1C)C(=O)c1ccccc1C2=O [sepantronium bromide, reference compound] , thanks. 100
